Consider the following compounds; for each one, report its Composite Activity - Marginal.
- Tested on: Hepatotoxicity
- method_summary: FDA HLAED, liver enzyme composite activity
- experimental_parameters: human
Simply state the number, no unit and no words.

Asked: Provide value of Composite Activity - Marginal for this record tested with Hepatotoxicity: NC1=NC(=O)C(c2ccccc2)O1 (stereo not given) [PEMOLINE]
Given back: 0

Asked: Provide value of Composite Activity - Marginal for this record tested with Hepatotoxicity: OC(c1cc(C(F)(F)F)nc2c(C(F)(F)F)cccc12)C1CCCCN1 (stereo not given) [MEFLOQUINE]
Given back: 0

Asked: Provide value of Composite Activity - Marginal for this record tested with Hepatotoxicity: O=c1[nH]cnc2c1ncn2[C@H]1CC[C@@H](CO)O1 [DIDANOSINE]
Given back: 1

Asked: Provide value of Composite Activity - Marginal for this record tested with Hepatotoxicity: CCOC(=O)[C@H](CCc1ccccc1)N[C@@H](C)C(=O)N1CCC[C@H]1C(=O)O
Given back: 0

Asked: Provide value of Composite Activity - Marginal for this record tested with Hepatotoxicity: Cc1cn([C@H]2C[C@H](N=[N+]=[N-])[C@@H](CO)O2)c(=O)[nH]c1=O [ZIDOVUDINE]
Given back: 0

----------
- Tested on: Hepatotoxicity
- method_summary: FDA HLAED, serum glutamic oxaloacetic transaminase (SGOT) increase
- experimental_parameters: human
readout_type: SGOT Increase - Activity Score

Some compounds with recorded SGOT Increase - Activity Score:
compound: Nc1ncnc2c1ncn2[C@@H]1O[C@H](CO)[C@@H](O)[C@H]1O [ADENOSINE]
reported_measurement: Inactive

compound: CN1CCN(C2=Nc3ccccc3Oc3ccc(Cl)cc32)CC1 [LOXAPINE]
reported_measurement: Active

compound: O=C1CN(/N=C/c2ccc([N+](=O)[O-])o2)C(=O)N1 [NITROFURANTOIN]
reported_measurement: Active

compound: Clc1ccc(CCC(Cn2ccnc2)Sc2c(Cl)cccc2Cl)cc1 (centres undefined) [BUTOCONAZOLE]
reported_measurement: Inactive

compound: CC(C)(C#N)c1cc(Cn2cncn2)cc(C(C)(C)C#N)c1 [ANASTROZOLE]
reported_measurement: Active

compound: c1ccc([C@H]2CN3CCSC3=N2)cc1 [LEVAMISOLE]
reported_measurement: Active

Asked: Entry under review: O=P1(NCCCl)OCCCN1CCCl (centres undefined) [IFOSFAMIDE] . Reported SGOT Increase - Activity Score?
Given back: Active

Asked: Entry under review: CCN[C@@H]1C[C@H](N)[C@@H](O[C@H]2OC(CN)=CC[C@H]2N)[C@H](O)[C@H]1O[C@H]1OC[C@](C)(O)[C@H](NC)[C@H]1O [NETILMICIN] . Reported SGOT Increase - Activity Score?
Given back: Inactive

Asked: Entry under review: CCOC(=O)c1ncn2c1CN(C)C(=O)c1cc(F)ccc1-2 [FLUMAZENIL] . Reported SGOT Increase - Activity Score?
Given back: Inactive

----------
- Test system: Hepatotoxicity
- method_summary: FDA HLAED, liver enzyme composite activity
- experimental_parameters: human
readout_type: Composite Activity - Score

compound: Nc1ccn([C@@H]2O[C@H](CO)[C@@H](O)C2(F)F)c(=O)n1
readout_type: Composite Activity - Score
reported_measurement: Inactive

compound: CN(N=O)C(=O)N[C@@H](C=O)[C@@H](O)[C@H](O)[C@H](O)CO
readout_type: Composite Activity - Score
reported_measurement: Inactive

compound: COc1cc(C(=O)NS(=O)(=O)c2ccccc2C)ccc1Cc1cn(C)c2ccc(NC(=O)OC3CCCC3)cc12
readout_type: Composite Activity - Score
reported_measurement: Active

compound: COc1cc([C@@H]2c3cc4c(cc3[C@H](O)[C@H]3COC(=O)[C@H]23)OCO4)cc(OC)c1OC
readout_type: Composite Activity - Score
reported_measurement: Inactive

Asked: Entry under review: CCOC(=O)[C@H](CCc1ccccc1)N[C@@H](C)C(=O)N1CCC[C@H]1C(=O)O . Reported Composite Activity - Score?
Given back: Inactive

Asked: Entry under review: CCC(=O)[C@@]1(C)[C@H](C)C[C@H]2[C@@H]3CCC4=CC(=O)C=C[C@]4(C)[C@H]3[C@@H](O)C[C@@]21C [RIMEXOLONE] . Reported Composite Activity - Score?
Given back: Inactive

Asked: Entry under review: CC[C@H](C)C(=O)O[C@H]1C[C@H](O)C=C2C=C[C@H](C)[C@H](CC[C@@H](O)C[C@@H](O)CC(=O)O)[C@H]21 . Reported Composite Activity - Score?
Given back: Active
